system: Human OX2 receptor (Homo sapiens (Human))
Sequence (O43614 whole entry): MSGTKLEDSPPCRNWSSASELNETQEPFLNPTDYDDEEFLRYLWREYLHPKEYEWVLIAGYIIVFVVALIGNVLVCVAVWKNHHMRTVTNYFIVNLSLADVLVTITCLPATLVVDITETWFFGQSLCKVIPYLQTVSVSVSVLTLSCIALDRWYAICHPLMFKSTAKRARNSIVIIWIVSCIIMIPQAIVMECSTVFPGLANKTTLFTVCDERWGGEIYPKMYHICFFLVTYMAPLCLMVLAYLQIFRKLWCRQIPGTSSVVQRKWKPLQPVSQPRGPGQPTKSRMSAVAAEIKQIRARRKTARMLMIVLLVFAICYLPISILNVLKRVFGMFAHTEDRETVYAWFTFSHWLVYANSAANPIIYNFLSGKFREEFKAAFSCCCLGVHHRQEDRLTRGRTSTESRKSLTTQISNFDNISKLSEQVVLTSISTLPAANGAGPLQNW
assaySummary: [3H]-radioligand binding assay, OX2
appliedConditions: competition binding, membranes of SF21 cells, Ki by Cheng-Prusoff

[
  {
    "molecule": "CC(=O)Nc1ccc(-n2nccn2)c(C(=O)N[C@H]2CCC[C@@H]2COc2ccc(F)cc2F)n1 [Example 17]",
    "pKi average OX2": 5.4
  },
  {
    "molecule": "CC(=O)Nc1ccc(-c2ncccn2)c(C(=O)N[C@H]2CCC[C@@H]2COc2ccc(Cl)cc2)n1 [Example 15]",
    "pKi average OX2": 6.2
  },
  {
    "molecule": "Nc1ccc(-c2ncc(F)cn2)c(C(=O)N[C@H]2CCC[C@@H]2COc2ccc(F)cc2)n1 [Example 22]",
    "pKi average OX2": 6.3
  }
]

* * *

system: Human OX1 receptor (Homo sapiens (Human), UniProt O43613)
Sequence (O43613 whole entry): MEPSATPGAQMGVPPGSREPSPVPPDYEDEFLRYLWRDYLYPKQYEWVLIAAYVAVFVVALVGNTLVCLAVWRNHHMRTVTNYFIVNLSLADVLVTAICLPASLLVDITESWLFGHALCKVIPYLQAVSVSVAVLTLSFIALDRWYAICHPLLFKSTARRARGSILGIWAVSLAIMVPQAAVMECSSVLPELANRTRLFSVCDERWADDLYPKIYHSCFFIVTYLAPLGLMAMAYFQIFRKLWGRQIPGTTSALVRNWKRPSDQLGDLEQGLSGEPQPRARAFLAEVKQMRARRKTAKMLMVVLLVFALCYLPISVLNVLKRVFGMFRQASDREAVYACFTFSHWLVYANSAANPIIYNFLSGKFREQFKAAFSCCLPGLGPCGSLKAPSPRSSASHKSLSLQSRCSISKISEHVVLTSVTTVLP
assaySummary: IPone accumulation assay, CHO cells expressing OX1
Type: cell-based
appliedConditions: antagonism of orexin A (EC80 ~20 nM)-induced inositol phosphate turnover, read-out: fpKb average OX1 (converted)
// values below are reported log10 of Kb
recordedMetric: log10 of Kb (log10 of the value in nM)

[
  {
    "cpdSmiles": "O=C(N[C@H]1CCC[C@@H]1COc1ccc(F)cc1)c1nc(NCCO)ccc1-n1nccn1",
    "experimentalValue": 0.90
  },
  {
    "cpdSmiles": "CC(=O)Nc1ccc(-n2nccn2)c(C(=O)N[C@H]2CCC[C@@H]2COc2ccc(F)cc2F)n1",
    "experimentalValue": 1.70
  },
  {
    "cpdSmiles": "Nc1ccc(-c2ncccn2)c(C(=O)N[C@H]2CCC[C@@H]2COc2ccc(F)cc2)n1",
    "experimentalValue": 0.70
  },
  {
    "cpdSmiles": "CC(=O)Nc1cnc(-n2nccn2)c(C(=O)N[C@H]2CCC[C@@H]2COc2ccc(F)cc2)c1",
    "experimentalValue": 0.60
  },
  {
    "cpdSmiles": "CC(=O)Nc1ccc(-c2ncccn2)c(C(=O)N(C)[C@H]2CCC[C@@H]2COc2ccc(F)cc2)n1",
    "experimentalValue": -0.20
  },
  {
    "cpdSmiles": "CC(=O)Nc1ccc(-c2ncccn2)c(C(=O)N[C@H]2CCC[C@@H]2COc2ccc(F)cc2)n1",
    "experimentalValue": 0.60
  },
  {
    "cpdSmiles": "COC(=O)Nc1ccc(-n2nccn2)c(C(=O)N[C@H]2CCC[C@@H]2COc2ccc(F)cc2)n1",
    "experimentalValue": 1.90
  },
  {
    "cpdSmiles": "Nc1ccc(-n2nccn2)c(C(=O)N[C@H]2CCC[C@@H]2COc2ccc(F)cc2)n1",
    "experimentalValue": 1.00
  },
  {
    "cpdSmiles": "CC(=O)Nc1ccc(-c2ncccn2)c(C(=O)N[C@H]2CCC[C@@H]2COc2ccc(Cl)cc2)n1",
    "experimentalValue": 0.60
  },
  {
    "cpdSmiles": "CC(=O)Nc1ccc(-c2ncccn2)c(C(=O)N[C@H]2CCC[C@@H]2COc2ccc(F)cc2)c1F",
    "experimentalValue": 1.70
  },
  {
    "cpdSmiles": "CC(=O)Nc1ccc(-n2nccn2)c(C(=O)N(C)[C@H]2CCC[C@@H]2COc2ccc(F)cc2)n1",
    "experimentalValue": 0.50
  },
  {
    "cpdSmiles": "CC(=O)Nc1cc(C(=O)N[C@H]2CCC[C@@H]2COc2ccc(F)cc2)c(-n2nccn2)cn1",
    "experimentalValue": 0.50
  },
  {
    "cpdSmiles": "Nc1ccc(-c2ncc(F)cn2)c(C(=O)N[C@H]2CCC[C@@H]2COc2ccc(F)cc2)n1",
    "experimentalValue": 0.90
  },
  {
    "cpdSmiles": "CC(=O)Nc1cc(C(=O)N[C@H]2CCC[C@@H]2COc2ccc(F)cc2)c(-c2ncccn2)cn1",
    "experimentalValue": 0.10
  },
  {
    "cpdSmiles": "CC(=O)Nc1ccc(-n2nccn2)c(C(=O)N[C@H]2CCC[C@@H]2COc2ccc(Cl)cc2)n1",
    "experimentalValue": 0.90
  },
  {
    "cpdSmiles": "CC(=O)Nc1ccc(-n2nccn2)c(C(=O)N[C@H]2CCC[C@@H]2COc2ccc(F)cn2)n1",
    "experimentalValue": 2.50
  },
  {
    "cpdSmiles": "CC(=O)Nc1ccc(-c2ncc(F)cn2)c(C(=O)N[C@H]2CCC[C@@H]2COc2ccc(F)cc2)n1",
    "experimentalValue": 1.30
  },
  {
    "cpdSmiles": "O=C(N[C@H]1CCC[C@@H]1COc1ccc(F)cc1)c1nc(NCC(F)F)ccc1-n1nccn1",
    "experimentalValue": 1.20
  },
  {
    "cpdSmiles": "CC(=O)Nc1ccc(-n2nccn2)c(C(=O)N[C@H]2CCC[C@@H]2COc2ccc(F)c(F)c2)n1",
    "experimentalValue": 1.40
  },
  {
    "cpdSmiles": "COCC(=O)Nc1ccc(-c2ncccn2)c(C(=O)N[C@H]2CCC[C@@H]2COc2ccc(F)cc2)n1",
    "experimentalValue": 2.30
  },
  {
    "cpdSmiles": "CC(=O)Nc1cc(F)c(-n2nccn2)c(C(=O)N[C@H]2CCC[C@@H]2COc2ccc(F)cc2)c1",
    "experimentalValue": -0.10
  },
  {
    "cpdSmiles": "[2H]C([2H])(Oc1ccc(F)cc1)[C@H]1CCC[C@@H]1NC(=O)c1nc(NC(C)=O)ccc1-n1nccn1",
    "experimentalValue": 1.20
  },
  {
    "cpdSmiles": "O=C(N[C@H]1CCC[C@@H]1COc1ccc(F)cc1)c1nc(NC(=O)C(F)F)ccc1-n1nccn1",
    "experimentalValue": 1.50
  },
  {
    "cpdSmiles": "CC(=O)Nc1ccc(-n2nccn2)c(C(=O)N[C@H]2CCC[C@@H]2COc2ccc(F)cc2)n1",
    "experimentalValue": 1.30
  },
  {
    "cpdSmiles": "CC(=O)Nc1ccc(-n2nccn2)c(C(=O)N(C(C)C)[C@H]2CCC[C@@H]2COc2ccc(F)cc2)n1",
    "experimentalValue": 1.40
  }
]

* * *

system: Human OX2 receptor (Homo sapiens (Human))
assaySummary: [3H]-radioligand binding assay, OX2
appliedConditions: competition binding, membranes of SF21 cells, Ki by Cheng-Prusoff

[
  {
    "cpdSmiles": "CC(=O)Nc1ccc(-c2ncccn2)c(C(=O)N[C@H]2CCC[C@@H]2COc2ccc(F)cc2)n1",
    "limitOperator": "=",
    "pKi average OX2": 6.0
  },
  {
    "cpdSmiles": "CC(=O)Nc1ccc(-c2ncc(F)cn2)c(C(=O)N[C@H]2CCC[C@@H]2COc2ccc(F)cc2)n1",
    "limitOperator": "=",
    "pKi average OX2": 5.6
  },
  {
    "cpdSmiles": "CC(=O)Nc1ccc(-n2nccn2)c(C(=O)N[C@H]2CCC[C@@H]2COc2ccc(F)cn2)n1",
    "limitOperator": "<",
    "pKi average OX2": 5.1
  },
  {
    "cpdSmiles": "COC(=O)Nc1ccc(-n2nccn2)c(C(=O)N[C@H]2CCC[C@@H]2COc2ccc(F)cc2)n1",
    "limitOperator": "<",
    "pKi average OX2": 5.9
  },
  {
    "cpdSmiles": "Nc1ccc(-n2nccn2)c(C(=O)N[C@H]2CCC[C@@H]2COc2ccc(F)cc2)n1",
    "limitOperator": "=",
    "pKi average OX2": 5.9
  },
  {
    "cpdSmiles": "[2H]C([2H])(Oc1ccc(F)cc1)[C@H]1CCC[C@@H]1NC(=O)c1nc(NC(C)=O)ccc1-n1nccn1",
    "limitOperator": "=",
    "pKi average OX2": 5.8
  },
  {
    "cpdSmiles": "CC(=O)Nc1ccc(-n2nccn2)c(C(=O)N(C)[C@H]2CCC[C@@H]2COc2ccc(F)cc2)n1",
    "limitOperator": "=",
    "pKi average OX2": 6.0
  }
]

* * *

system: UniProt:O43613
assaySummary: [3H]-radioligand binding assay, OX1
appliedConditions: competition binding, membranes of SF21 cells, Ki by Cheng-Prusoff
As shown below, each of these compounds has a reported pKi average OX1 value.
recordedMetric: pKi average OX1

[
  {
    "cpdSmiles": "CC(=O)Nc1ccc(-n2nccn2)c(C(=O)N[C@H]2CCC[C@@H]2COc2ccc(F)c(F)c2)n1",
    "recordedMetric": "pKi average OX1",
    "experimentalValue": 8.2
  },
  {
    "cpdSmiles": "CC(=O)Nc1ccc(-n2nccn2)c(C(=O)N[C@H]2CCC[C@@H]2COc2ccc(F)cc2)n1",
    "recordedMetric": "pKi average OX1",
    "experimentalValue": 8.3
  },
  {
    "cpdSmiles": "Nc1ccc(-n2nccn2)c(C(=O)N[C@H]2CCC[C@@H]2COc2ccc(F)cc2)n1",
    "recordedMetric": "pKi average OX1",
    "experimentalValue": 8.0
  },
  {
    "cpdSmiles": "CC(=O)Nc1ccc(-n2nccn2)c(C(=O)N(C)[C@H]2CCC[C@@H]2COc2ccc(F)cc2)n1",
    "recordedMetric": "pKi average OX1",
    "experimentalValue": 8.5
  },
  {
    "cpdSmiles": "CC(=O)Nc1cnc(-n2nccn2)c(C(=O)N[C@H]2CCC[C@@H]2COc2ccc(F)cc2)c1",
    "recordedMetric": "pKi average OX1",
    "experimentalValue": 8.5
  },
  {
    "cpdSmiles": "O=C(N[C@H]1CCC[C@@H]1COc1ccc(F)cc1)c1nc(NCCO)ccc1-n1nccn1",
    "recordedMetric": "pKi average OX1",
    "experimentalValue": 8.4
  },
  {
    "cpdSmiles": "CC(=O)Nc1cc(F)c(-n2nccn2)c(C(=O)N[C@H]2CCC[C@@H]2COc2ccc(F)cc2)c1",
    "recordedMetric": "pKi average OX1",
    "experimentalValue": 9.0
  },
  {
    "cpdSmiles": "CC(=O)Nc1ccc(-n2nccn2)c(C(=O)N[C@H]2CCC[C@@H]2COc2ccc(Cl)cc2)n1",
    "recordedMetric": "pKi average OX1",
    "experimentalValue": 8.1
  },
  {
    "cpdSmiles": "CC(=O)Nc1ccc(-n2nccn2)c(C(=O)N(C(C)C)[C@H]2CCC[C@@H]2COc2ccc(F)cc2)n1",
    "recordedMetric": "pKi average OX1",
    "experimentalValue": 8.1
  },
  {
    "cpdSmiles": "Nc1ccc(-c2ncccn2)c(C(=O)N[C@H]2CCC[C@@H]2COc2ccc(F)cc2)n1",
    "recordedMetric": "pKi average OX1",
    "experimentalValue": 8.2
  },
  {
    "cpdSmiles": "CC(=O)Nc1ccc(-c2ncccn2)c(C(=O)N[C@H]2CCC[C@@H]2COc2ccc(F)cc2)c1F",
    "recordedMetric": "pKi average OX1",
    "experimentalValue": 7.7
  },
  {
    "cpdSmiles": "[2H]C([2H])(Oc1ccc(F)cc1)[C@H]1CCC[C@@H]1NC(=O)c1nc(NC(C)=O)ccc1-n1nccn1",
    "recordedMetric": "pKi average OX1",
    "experimentalValue": 8.4
  },
  {
    "cpdSmiles": "CC(=O)Nc1ccc(-c2ncc(F)cn2)c(C(=O)N[C@H]2CCC[C@@H]2COc2ccc(F)cc2)n1",
    "recordedMetric": "pKi average OX1",
    "experimentalValue": 8.2
  },
  {
    "cpdSmiles": "CC(=O)Nc1ccc(-c2ncccn2)c(C(=O)N[C@H]2CCC[C@@H]2COc2ccc(Cl)cc2)n1",
    "recordedMetric": "pKi average OX1",
    "experimentalValue": 8.7
  },
  {
    "cpdSmiles": "CC(=O)Nc1ccc(-c2ncccn2)c(C(=O)N[C@H]2CCC[C@@H]2COc2ccc(F)cc2)n1",
    "recordedMetric": "pKi average OX1",
    "experimentalValue": 8.3
  }
]
